biological target: BCG_3193 (Rv3169) (Mycobacterium bovis BCG, UniProt A0A1R3Y3B6); assay: biochemical; set-up: species or system Mycobacterium bovis BCG extract; settings: IC50, Experiment ID=X028554; bead competition in BCG extract
Sequence (A0A1R3Y3B6 1-374): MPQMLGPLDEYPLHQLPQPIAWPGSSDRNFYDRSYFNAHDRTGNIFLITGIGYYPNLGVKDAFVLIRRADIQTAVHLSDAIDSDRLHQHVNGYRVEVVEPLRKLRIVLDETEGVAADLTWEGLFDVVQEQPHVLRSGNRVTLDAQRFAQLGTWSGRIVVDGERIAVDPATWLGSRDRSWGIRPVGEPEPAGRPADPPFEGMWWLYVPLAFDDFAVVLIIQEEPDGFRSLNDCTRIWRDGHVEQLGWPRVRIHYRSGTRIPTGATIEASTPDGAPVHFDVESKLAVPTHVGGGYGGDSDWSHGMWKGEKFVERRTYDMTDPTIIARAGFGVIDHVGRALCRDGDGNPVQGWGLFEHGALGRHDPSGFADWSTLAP
pIC50: −log10 of the molar value.
property.label: pIC50

molecule | property.label | result.number
CN1CCN(c2ccc(NC(=O)c3cc(N(C)Cc4ccc(C(F)(F)F)cc4)ncn3)cc2)CC1 [Compound 40] | pIC50 | 5.82

----------
target: Mycobacterium bovis BCG extract proteins (Mycobacterium bovis BCG)

smiles.code | IC50
O=C(Nc1ccccc1)c1ccc(=O)n(Cc2ccc(F)cc2)c1 | ≥ 30 µM

----------
biological target: Mycobacterium bovis BCG extract proteins (Mycobacterium bovis BCG); assay: biochemical; assay type: binding; details: pIC50

smiles.code | tested.on | IC50
O=C(Nc1ccccc1)c1ccc(=O)n(Cc2ccc(F)cc2)c1 | Mycobacterium bovis BCG extract proteins (Mycobacterium bovis BCG) | ≥ 30.2 µM

----------
target: Mycobacterium bovis BCG extract proteins (Mycobacterium bovis BCG, UniProt P9WKC7); experiment: biochemical; type: binding; details: pIC50
Sequence (P9WKC7 whole entry): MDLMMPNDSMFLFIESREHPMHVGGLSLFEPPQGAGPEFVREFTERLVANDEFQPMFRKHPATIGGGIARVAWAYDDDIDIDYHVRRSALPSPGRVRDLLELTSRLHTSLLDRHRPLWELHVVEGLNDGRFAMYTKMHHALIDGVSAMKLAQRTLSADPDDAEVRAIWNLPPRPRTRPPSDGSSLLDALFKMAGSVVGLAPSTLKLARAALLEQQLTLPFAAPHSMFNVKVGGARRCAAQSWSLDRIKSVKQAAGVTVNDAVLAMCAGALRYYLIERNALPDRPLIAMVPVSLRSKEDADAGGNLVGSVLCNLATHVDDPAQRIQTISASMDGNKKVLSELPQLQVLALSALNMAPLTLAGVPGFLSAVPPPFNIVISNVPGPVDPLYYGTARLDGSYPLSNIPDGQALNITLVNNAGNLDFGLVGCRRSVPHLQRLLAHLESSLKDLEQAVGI
pIC50: −log10 of the molar value.

compound | pIC50
O=C(Nc1ccccc1)c1ccc(=O)n(Cc2ccc(F)cc2)c1 [Compound 25] | ≤ 4.52

----------
tested on: BCG_3827 (Rv3768); type: binding, Mycobacterium bovis BCG
property.label: IC50 (µM)

smiles.code | tested.on | property.label | measurement.unit | comparison.sign | result.number
CN1CCN(c2ccc(NC(=O)c3cc(N(C)Cc4ccc(C(F)(F)F)cc4)ncn3)cc2)CC1 | BCG_3827 (Rv3768) | IC50 | µM | = | 10
O=C(Nc1ccccc1)c1ccc(=O)n(Cc2ccc(F)cc2)c1 | BCG_3827 (Rv3768) | IC50 | µM | ≥ | 30

----------
assay: in vivo; details: male, C57/BL6, mouse, iv, 5 mg/kg
Below is a list of entries, each paired with its recorded half-life at 24 h value.

smiles.code | half-life at 24 h / h
CN(Cc1ccc(C(F)(F)F)cc1)c1cc(C(=O)Nc2ccccc2)ncn1 | 4.6
CN1CCN(c2ccc(NC(=O)c3cc(N(C)Cc4ccc(C(F)(F)F)cc4)ncn3)cc2)CC1 | 10.3
CN(Cc1ccc(F)cc1)c1cc(C(=O)Nc2nncs2)ncn1 | 5.1

----------
biological target: Mycobacterium bovis BCG extract proteins (Mycobacterium bovis BCG); assay: biochemical; type: binding; details: IC50
pIC50: −log10 of the molar value.
property.label: pIC50

smiles.code | property.label | result
O=C(Nc1ccccc1)c1ccc(=O)n(Cc2ccc(F)cc2)c1 | pIC50 | ≤ 4.52

----------
molecular target: Mycobacterium bovis BCG extract proteins (Mycobacterium bovis BCG)
property.label: IC50

smiles.code | property.label | result
O=C(Nc1ccccc1)c1ccc(=O)n(Cc2ccc(F)cc2)c1 | IC50 | ≥ 30 µM

----------
target: Mycobacterium bovis BCG extract proteins (Mycobacterium bovis BCG); test: biochemical; format: binding; details: IC50
pIC50: −log10 of the molar value.
property.label: pIC50

smiles.code | result
O=C(Nc1ccccc1)c1ccc(=O)n(Cc2ccc(F)cc2)c1 | ≤ 4.52

----------
assay: in vivo; conditions: male, C57/BL6, mouse, iv, 5 mg/kg
Below is a list of entries, each paired with its recorded clearance at 24 h value.
property.label: clearance at 24 h (mL/min/kg)

smiles.code | measurement.unit | result.number
CN(Cc1ccc(C(F)(F)F)nc1)c1cc(C(=O)Nc2nncs2)ncn1 | mL/min/kg | 6.6
CN(Cc1ccc(C(F)(F)F)nc1)c1cc(C(=O)Nc2ccccc2)ncn1 | mL/min/kg | 11.2
CN(Cc1ccc(C(F)(F)F)cc1)c1cc(C(=O)Nc2ccccc2)ncn1 | mL/min/kg | 11.3
CN(Cc1ccc(F)cc1)c1cc(C(=O)Nc2nncs2)ncn1 | mL/min/kg | 11.1
